Organism: Rattus norvegicus
ASSAY_PROTOCOL: DrugMatrix - Regimen: Daily Repeat
Assay type: toxicity, organism-based, Sprague-Dawley
Design: regimen Daily Repeat, gender Male, age 6-8 weeks
TEST_PARAMETERS: in vivo, po, 0 mg/kg, 72 h, tissue Plasma, route oral GAVAGE, dose level Control, time 3 day, […]
Label Y for high-side CARBON DIOXIDE (at or above 30 mmol/L) and N for low-side CARBON DIOXIDE (below it).

COc1ccc2c(c1)c(CC(=O)OCC(=O)O)c(C)n2C(=O)c1ccc(Cl)cc1	N
CCCC[C@@H](CC)COC(=O)c1ccccc1C(=O)OC[C@@H](CC)CCCC [BIS(2-ETHYLHEXYL)PHTHALATE]	N

Enquiry: hey, is CARBON DIOXIDE for this one >= 30 mmol/L? CC(C)n1c(/C=C/C(O)CC(O)CC(=O)O)c(-c2ccc(F)cc2)c2ccccc21 (stereo not drawn)
Return: Y

Enquiry: hey, is CARBON DIOXIDE for this one >= 30 mmol/L? `c1ccc2[nH]c(-c3cscn3)nc2c1`
Return: N

Enquiry: hey, is CARBON DIOXIDE for this one >= 30 mmol/L? `COC1=CC(=O)C[C@@H](C)[C@]12Oc1c(Cl)c(OC)cc(OC)c1C2=O`
Return: N

Enquiry: hey, is CARBON DIOXIDE for this one >= 30 mmol/L? `CC(=O)[C@H]1CC[C@H]2[C@@H]3CCC4=CC(=O)CC[C@]4(C)[C@H]3CC[C@]12C`
Return: Y

Enquiry: hey, is CARBON DIOXIDE for this one >= 30 mmol/L? `Oc1c(Cl)cc(Cl)cc1Sc1cc(Cl)cc(Cl)c1O`
Return: Y

* * *

Organism: Rattus norvegicus
ASSAY_PROTOCOL: DrugMatrix - Regimen: Daily Repeat
Format: toxicity, organism-based, Sprague-Dawley
Design: regimen Daily Repeat, gender Male, age 6-8 weeks
TEST_PARAMETERS: in vivo, po, 0 mg/kg, 72 h, tissue Blood, route oral GAVAGE, dose level Control, time 3 day, vehicle 100 % WATER
The entries below come with measured HEMOGLOBIN values attached.
Express the result in G/DL but write the number alone.

Clc1ccc(C(c2ccccc2Cl)C(Cl)Cl)cc1 (stereo not given) [MITOTANE]	14.28
CC(C)(S)[C@@H](N)C(=O)O [PENICILLAMINE]	12.88
O=C1NC(=O)C(c2ccccc2)(c2ccccc2)N1 [PHENYTOIN]	13.43
CN1CCC[C@H]1c1cccnc1 [NICOTINE]	12.98
NCC1(CC(=O)O)CCCCC1 [GABAPENTIN]	13.6
NNC(=O)c1ccncc1 [ISONIAZID]	12.55

Enquiry: Need HEMOGLOBIN, item Fc1ccc([C@@H]2CCNC[C@H]2COc2ccc3c(c2)OCO3)cc1 [PAROXETINE]
Return: 13.17

Enquiry: Need HEMOGLOBIN, item CC(CCc1ccccc1)NCC(O)c1ccc(O)c(C(N)=O)c1 (stereo not given) [LABETALOL]
Return: 13.97

Enquiry: Need HEMOGLOBIN, item Cc1cc(NS(=O)(=O)c2ccc(N)cc2)no1 [SULFAMETHOXAZOLE]
Return: 13.12

Enquiry: Need HEMOGLOBIN, item CC1COc2c(N3CCN(C)CC3)c(F)cc3c(=O)c(C(=O)O)cn1c23 (stereo not given) [OFLOXACIN]
Return: 12.98

* * *

Species on record: Rattus norvegicus
ASSAY_PROTOCOL: DrugMatrix - Regimen: Daily Repeat
Format: toxicity, organism-based, Sprague-Dawley
Set-up: regimen Daily Repeat, gender Male, age 6-8 weeks
TEST_PARAMETERS: in vivo, po, 0 mg/kg, 72 h, tissue Blood, route oral GAVAGE, dose level Control, time 3 day, vehicle 100 % WATER
MEASURED_METRIC: PLATELET COUNT (x10E3/uL)
Express the result in x10E3/uL but write the number alone.

These solved cases illustrate the format of a correct answer.
Cn1cnc([N+](=O)[O-])c1Sc1ncnc2nc[nH]c12 [AZATHIOPRINE]	1193.33
CN1CCN(C(=O)OC2c3nccnc3C(=O)N2c2ccc(Cl)cn2)CC1 (centres undefined) [ZOPICLONE]	1181.33

Enquiry: Need PLATELET COUNT, item CC(C)(S)[C@@H](N)C(=O)O [PENICILLAMINE]
Return: 1124.83

Enquiry: Need PLATELET COUNT, item COc1ccc(C(CN(C)C)C2(O)CCCCC2)cc1 (centres undefined) [VENLAFAXINE]
Return: 1313.17

Enquiry: Need PLATELET COUNT, item CC(CCc1ccccc1)NCC(O)c1ccc(O)c(C(N)=O)c1 (centres undefined) [LABETALOL]
Return: 1312.17

Enquiry: Need PLATELET COUNT, item Cc1cc(NS(=O)(=O)c2ccc(N)cc2)no1 [SULFAMETHOXAZOLE]
Return: 1313.17

* * *

The entries below come with measured MEAN CORPUSCULAR HEMOGLOBIN CONCENTRATION values attached.
Species on record: Rattus norvegicus
ASSAY_PROTOCOL: DrugMatrix - Regimen: Daily Repeat
Type: toxicity, organism-based, Sprague-Dawley
Set-up: regimen Daily Repeat, gender Male, age 6-8 weeks
TEST_PARAMETERS: in vivo, po, 10 mg/kg, 72 h, tissue Blood, route oral GAVAGE, dose level Low, time 3 day, vehicle .5 % CMC
Number plus unit, in that order.

NS(=O)(=O)c1cc2c(cc1Cl)NCNS2(=O)=O [HYDROCHLOROTHIAZIDE]	39.67 G/DL
CC(=O)O[C@]1(C(C)=O)CC[C@H]2[C@@H]3C=C(Cl)C4=CC(=O)CC[C@]4(C)[C@H]3CC[C@@]21C [CHLORMADINONE ACETATE]	40.27 G/DL

Enquiry: Need MEAN CORPUSCULAR HEMOGLOBIN CONCENTRATION, item `O=C1CN=C(c2ccccc2)c2cc([N+](=O)[O-])ccc2N1`
Return: 40.73 G/DL

Enquiry: Need MEAN CORPUSCULAR HEMOGLOBIN CONCENTRATION, item COc1c(C)c2c(c(O)c1C/C=C(\C)CCC(=O)OCCN1CCOCC1)C(=O)OC2 [MYCOPHENOLATE MOFETIL]
Return: 41.47 G/DL

* * *

Species on record: Rattus norvegicus
ASSAY_PROTOCOL: DrugMatrix - Regimen: Daily Repeat
Assay type: toxicity, organism-based, Sprague-Dawley
Design: regimen Daily Repeat, gender Male, age 6-8 weeks
TEST_PARAMETERS: in vivo, po, 0 mg/kg, 72 h, tissue Blood, route oral GAVAGE, dose level Control, time 3 day, vehicle .5 % CMC
The entries below come with measured NEUTROPHIL values attached.
Express the result in % but write the number alone.

Enquiry: Need NEUTROPHIL, item CCC[C@@H]1C[C@@H](C(=O)N[C@@H]([C@H]2O[C@H](SC)[C@H](O)[C@@H](O)[C@H]2O)[C@@H](C)O)N(C)C1 [LINCOMYCIN]
Return: 7.17

Enquiry: Need NEUTROPHIL, item O=C1CCc2cc(OCCCCc3nnnn3C3CCCCC3)ccc2N1 [CILOSTAZOL]
Return: 11.16

Enquiry: Need NEUTROPHIL, item CC[C@H]1OC(=O)[C@H](C)[C@@H](O[C@H]2C[C@@](C)(OC)[C@@H](O)[C@H](C)O2)[C@H](C)[C@@H](O[C@@H]2O[C@H](C)C[C@H](N(C)C)[C@H]2O)[C@](C)(O)C[C@@H](C)/C(=N\OCOCCOC)[C@H](C)[C@@H](O)[C@]1(C)O [ROXITHROMYCIN]
Return: 18.6

Enquiry: Need NEUTROPHIL, item CCc1cccc2c3c([nH]c12)C(CC)(CC(=O)O)OCC3 (centres undefined) [ETODOLAC]
Return: 18.6

Enquiry: Need NEUTROPHIL, item CC(C)[C@H](N)C(=O)OCCOCn1cnc2c(=O)[nH]c(N)nc21 [VALACYCLOVIR]
Return: 7.67

Enquiry: Need NEUTROPHIL, item NCC(=O)O [GLYCINE]
Return: 10.83

Enquiry: Need NEUTROPHIL, item C=C1CC[C@H](O)C/C1=C/C=C1\CCC[C@]2(C)[C@@H]([C@H](C)/C=C/[C@H](C)C(C)C)CC[C@@H]12 [ERGOCALCIFEROL]
Return: 8.67

Enquiry: Need NEUTROPHIL, item C[C@]12CCC(=O)C=C1CC[C@@H]1[C@@H]2C(=O)C[C@@]2(C)[C@H]1CC[C@]2(O)C(=O)CO [CORTISONE]
Return: 18.6

* * *

Species: Rattus norvegicus
ASSAY_PROTOCOL: DrugMatrix - Regimen: Daily Repeat
Format: toxicity, organism-based, Sprague-Dawley
Set-up: regimen Daily Repeat, gender Male, age 6-8 weeks
TEST_PARAMETERS: in vivo, po, 0 mg/kg, 120 h, tissue Blood, route oral GAVAGE, dose level Control, time 5 day, […]
MEASURED_METRIC: LYMPHOCYTE (%)
Express the result in % but write the number alone.

These solved cases illustrate the format of a correct answer.
CCCC[C@@H](CC)COC(=O)c1ccccc1C(=O)OC[C@@H](CC)CCCC [BIS(2-ETHYLHEXYL)PHTHALATE]	94.33
CSc1ccc2c(c1)N(CCC1CCCCN1C)c1ccccc1S2 (stereo not given)	89.5
O=[N+]([O-])c1cc([As](=O)(O)O)ccc1O	81.52
Oc1c(Cl)cc(Cl)cc1Sc1cc(Cl)cc(Cl)c1O	90.17
COCc1c(C(C)C)nc(C(C)C)c(/C=C/[C@@H](O)C[C@@H](O)CC(=O)O)c1-c1ccc(F)cc1	89
c1ccc2[nH]c(-c3cscn3)nc2c1	94.33
Cn1cnc([N+](=O)[O-])c1Sc1ncnc2nc[nH]c12	90.33
CC(C)n1c(/C=C/C(O)CC(O)CC(=O)O)c(-c2ccc(F)cc2)c2ccccc21 (stereo not given)	90.17

Enquiry: Need LYMPHOCYTE, item `CC(=O)[C@H]1CC[C@H]2[C@@H]3CCC4=CC(=O)CC[C@]4(C)[C@H]3CC[C@]12C`
Return: 91.17

Enquiry: Need LYMPHOCYTE, item `C=CCN`
Return: 83.83

Value source: ChEMBL document CHEMBL3885881
